A compilation of pIC50 values for UniProt:P11511 from the published literature.
Target: UniProt:P11511
Sequence (P11511 whole entry): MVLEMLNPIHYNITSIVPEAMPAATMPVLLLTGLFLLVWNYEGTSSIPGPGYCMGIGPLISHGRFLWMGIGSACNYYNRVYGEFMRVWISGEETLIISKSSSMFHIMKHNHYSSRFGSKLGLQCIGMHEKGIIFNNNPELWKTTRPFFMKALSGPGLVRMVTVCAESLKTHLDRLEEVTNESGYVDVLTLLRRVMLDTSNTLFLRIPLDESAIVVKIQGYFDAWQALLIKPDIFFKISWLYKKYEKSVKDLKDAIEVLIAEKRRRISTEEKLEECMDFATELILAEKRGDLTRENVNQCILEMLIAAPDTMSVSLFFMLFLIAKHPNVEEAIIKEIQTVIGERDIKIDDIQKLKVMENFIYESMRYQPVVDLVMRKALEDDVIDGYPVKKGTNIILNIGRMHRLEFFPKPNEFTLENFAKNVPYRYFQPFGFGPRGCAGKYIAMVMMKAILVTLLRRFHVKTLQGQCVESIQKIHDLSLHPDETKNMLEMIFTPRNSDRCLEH
pIC50: −log10 of the molar value.
endpoint-name: pIC50

>>> recorded_measurement("O=[N+]([O-])c1ccc(-c2ccncc2)c(OCCc2ccccc2)c1")
5.72
>>> recorded_measurement("Oc1ccc(C2CC(n3ccnc3)c3ccc4ccccc4c3O2)cc1 (mixture of isomers)")
7.49

[A] O=[N+]([O-])c1ccc(C(c2[nH]c3ccccc3c2CCNS(=O)(=O)c2ccc(C(F)(F)F)cc2)c2[nH]c3ccccc3c2CCNS(=O)(=O)c2ccc(C(F)(F)F)cc2)cc1
[B] Cc1ccc(OCc2cn(-c3ccc(S(=O)(=O)NCCc4ccccc4)cc3)nn2)cc1
Query :: Rank A against B by their pIC50 values and give the higher one. Reply briefly: the label of your chosen item.
Result :: A
(A: 5.40, B: 5.10)

[a] NS(=O)(=O)Oc1ccc(-c2cccc(Cn3cncn3)c2)cc1Cl
[b] C(=C\c1ccccc1)/CCN(Cc1cccc2ccccc12)n1cncn1
[c] COc1ccc(CCNS(=O)(=O)c2ccc(-n3cc(-c4ccccc4)nn3)cc2)cc1OC
Query :: Rank items: key pIC50, increasing. Answer format: list of labels, ordered as asked.
Result :: b, c, a

====

A compilation of IC50 values for Aromatase (Homo sapiens, UniProt P11511) from the published literature.
Molecular target: Aromatase (Homo sapiens, UniProt P11511)
Sequence (P11511 whole entry): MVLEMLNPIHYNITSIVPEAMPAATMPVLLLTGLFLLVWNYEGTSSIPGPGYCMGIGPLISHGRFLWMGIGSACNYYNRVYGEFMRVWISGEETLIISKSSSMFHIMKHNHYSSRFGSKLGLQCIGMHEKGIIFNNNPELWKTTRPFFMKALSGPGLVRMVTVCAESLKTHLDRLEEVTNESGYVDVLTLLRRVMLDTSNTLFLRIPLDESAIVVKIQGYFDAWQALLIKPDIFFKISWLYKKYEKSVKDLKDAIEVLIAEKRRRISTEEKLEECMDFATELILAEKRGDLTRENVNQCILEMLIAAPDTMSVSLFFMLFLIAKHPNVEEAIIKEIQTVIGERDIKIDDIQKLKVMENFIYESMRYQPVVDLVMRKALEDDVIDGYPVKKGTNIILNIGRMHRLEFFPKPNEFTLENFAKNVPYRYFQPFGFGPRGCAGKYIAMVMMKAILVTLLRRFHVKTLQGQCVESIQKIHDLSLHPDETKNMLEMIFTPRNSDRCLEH
endpoint-name: IC50 (nM)

[1] COc1ccc2c(c1)OC(c1ccccc1)/C(=C/c1ccncc1)C2=O (mixture of isomers)
[2] O=C1CC(c2cccc(O)c2)Oc2cc(O)ccc21 (configuration not stated)
Query :: Identify the item whose IC50 is the smaller number: 1 or 2 Reply briefly: the label of your chosen item.
Result :: 1

[a] O=C1CCc2cc(-c3cccnc3)cc(-c3cccnc3)c2N1
[b] N#Cc1cc(Cn2cncn2)ccc1-c1ccccc1
Query :: Rank a against b by their IC50 values and give the higher one. Reply briefly: the label of your chosen item.
Result :: a
(a: 954 nM, b: 4.6 nM)

[a] C[C@]12CCC(=O)C(O)=C1CCC1C2CC[C@]2(C)OC(=O)CCC12 (some centres not stated)
[b] COc1ccc(S(=O)(=O)NCCc2c(C(c3ccccc3O)c3[nH]c4ccccc4c3CCNS(=O)(=O)c3ccc(OC)cc3)[nH]c3ccccc23)cc1
[c] CCCCCCCc1cn(Cc2ccc(C#N)cc2)nn1
Query :: Rank items: key IC50, increasing. Answer format: list of labels, ordered as asked.
Result :: b, a, c

[1] CC(C)(C#N)c1cc(Cn2cncn2)cc(-c2ccc(OS(N)(=O)=O)cc2)c1
[2] CCCOc1ccc(COc2ccc3c(Cn4ccnc4)cc(=O)oc3c2)cc1
[3] O=C(c1ccccc1)c1cccc(Cn2ccnc2)c1
[4] N#Cc1ccc(Cn2cc(COc3ccc([N+](=O)[O-])cc3)nn2)cc1
Query :: Rank items: key IC50, increasing. Answer format: list of labels, ordered as asked.
Result :: 3, 1, 2, 4
(3: 7.3 nM, 1: 17.5 nM, 2: 477 nM, 4: 5620 nM)

====

A compilation of IC50 values for Aromatase (Homo sapiens) from the published literature.
endpoint-name: IC50 (nM)

[a] Fc1ccc(CC(Cc2ccc(-c3ccccc3)cc2)n2ccnc2)c(F)c1 (stereo unspecified)
[b] CC(C)=C(c1ccncc1)c1ccc(-c2ccc(O)c(F)c2)cc1
[c] N#Cc1ccc(Cn2cncn2)cc1-c1cccc(Cl)c1
[d] COc1cc(-c2nc(-c3cccnc3)cs2)ccn1
Query :: Rank the listed molecules by IC50, largest first. Answer format: list of labels, ordered as asked.
Result :: b, a, d, c

====

A compilation of pIC50 values for the protein given by its sequence from the published literature.
Sequence of the target: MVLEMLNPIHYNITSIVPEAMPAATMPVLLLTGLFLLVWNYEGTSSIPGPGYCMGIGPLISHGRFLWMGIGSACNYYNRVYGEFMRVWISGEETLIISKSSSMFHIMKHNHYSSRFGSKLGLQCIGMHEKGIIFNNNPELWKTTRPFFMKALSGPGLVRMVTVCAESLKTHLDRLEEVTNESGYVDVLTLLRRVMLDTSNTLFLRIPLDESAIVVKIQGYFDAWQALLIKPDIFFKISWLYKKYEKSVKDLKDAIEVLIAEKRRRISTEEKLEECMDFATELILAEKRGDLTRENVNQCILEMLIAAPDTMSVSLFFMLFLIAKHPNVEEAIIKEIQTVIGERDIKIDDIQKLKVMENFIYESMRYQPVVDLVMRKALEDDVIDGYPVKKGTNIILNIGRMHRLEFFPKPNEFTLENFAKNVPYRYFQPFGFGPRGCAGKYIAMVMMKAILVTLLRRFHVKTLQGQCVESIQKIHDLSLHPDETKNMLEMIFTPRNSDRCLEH
pIC50: −log10 of the molar value.
endpoint-name: pIC50

Known results for molecules:
>>> recorded_measurement("CCCc1cn(Cc2ccc(C#N)cc2)nn1")
5.36
>>> recorded_measurement("Brc1ccc(-c2csc(-c3ccncc3)n2)cn1")
5.57
>>> recorded_measurement("Clc1ccc(-c2[nH]c3cc4c(cc3c2Cn2ccnc2)OCO4)cc1")
5.58
>>> recorded_measurement("N#Cc1ccc(Cn2cc(COc3ccccc3)nn2)cc1")
5.22
>>> recorded_measurement("c1ccc(-c2cn(C(c3ccccc3)c3ccccc3)nn2)cc1")
4.89
>>> recorded_measurement("Clc1ccc(CC(Cc2ccccc2)n2ccnc2)s1 (configuration not stated)")
6.06
>>> recorded_measurement("c1ccc(Oc2ccccc2Cn2ccnc2)cc1")
6.41

[1] O=C1CCc2cc(C(c3ccccc3)c3cccnc3)cc3c2N1CC3 (configuration not stated)
[2] Cc1ccc2cc(Cn3ccnc3)n(-c3ccc(C#N)cc3)c2c1
[3] N#Cc1ccc(Cn2cc(COc3ccc(-c4ccccc4)cc3)nn2)cc1
Query :: Arrange by pIC50, high to low. Answer format: list of labels, ordered as asked.
Result :: 2, 1, 3
(2: 7.57, 1: 5.67, 3: 4.94)

====

A compilation of IC50 values for Aromatase (Homo sapiens, UniProt P11511) from the published literature.
endpoint-name: IC50 (µM)

Known results for molecules:
>>> recorded_measurement("N#Cc1ccc(-c2ccncc2)c(OCCc2ccccc2)c1")
1.55
>>> recorded_measurement("O=C(c1ccccc1)c1cc(Br)ccc1Cn1ccnc1")
0.4
>>> recorded_measurement("c1ccc(-c2cccc(Cn3cncn3)c2)cc1")
0.21

[A] O=S(=O)(NCCc1c(C(c2ccc(C(F)(F)F)cc2)c2[nH]c3ccccc3c2CCNS(=O)(=O)c2ccc(Cl)cc2)[nH]c2ccccc12)c1ccc(Cl)cc1
[B] N#Cc1ccc(Cn2cncn2)cc1-c1ccccc1
[C] COc1c(OC)c(OC)c2c(c(C)cc(=O)n2C)c1OC
[D] CCCCCCCCCCc1cn(C(c2ccc(C#N)cc2)c2ccc(C#N)cc2)nn1
Query :: Arrange by IC50, high to low. Answer format: list of labels, ordered as asked.
Result :: D, A, C, B
(D: 16 µM, A: 3.2 µM, C: 0.76 µM, B: 0.0002 µM)
